Where do the numbers come from? From patent US8772500B2.

ASSAY_SUMMARY: In vitro rat microsomal stability assay
Type: in vitro ADME, rat (Sprague-Dawley)
STUDY_CONDITIONS: 0.5 μM substrate, 0.25 mg/mL microsomal protein, pH 7.4, 37° C., NADPH, 30 minutes
Lab note: anything with RAT MICROSOMAL STABILITY (% REMAINING AFTER 30 MINUTES) at or over 20% counts as 1; the rest go in -1.

- COMPOUND: "CN1CCC(c2ccc(C(F)(F)F)cc2)(C(O)c2ccccn2)CC1 (centres unmarked)"
  CLASS_ASSIGNMENT: 1
- COMPOUND: "OC(c1ccccn1)C1(c2cccc(OC(F)(F)F)c2)CCNCC1 (centres unmarked)"
  CLASS_ASSIGNMENT: 1
- COMPOUND: "CC(C)(C)OC(=O)N1CCC(c2cccc(OC(F)(F)F)c2)(C(O)c2ccccn2)CC1 (centres unmarked)"
  CLASS_ASSIGNMENT: -1
- COMPOUND: "Cl.O[C@H](c1ccccn1)C1(c2ccc(Cl)c(Cl)c2)CC(F)(F)C1"
  CLASS_ASSIGNMENT: 1
- COMPOUND: "CN1CCC(c2cccc(OC(F)(F)F)c2)(C(O)c2ccccn2)CC1 (centres unmarked)"
  CLASS_ASSIGNMENT: -1
- COMPOUND: "CN1CCC(c2ccc(Cl)c(Cl)c2)(C(O)c2ccccn2)CC1 (centres unmarked)"
  CLASS_ASSIGNMENT: 1
- COMPOUND: "CN1CCC(c2ccc(OC(F)(F)F)cc2)(C(O)c2ccccn2)CC1 (centres unmarked)"
  CLASS_ASSIGNMENT: 1
- COMPOUND: "CN1CCC(c2ccccc2OC(F)(F)F)(C(O)c2ccccn2)CC1 (centres unmarked)"
  CLASS_ASSIGNMENT: 1
